# System: pigweed
# MEASUREMENT NOTES: Test B pre/postemergence pigweed
# Type: in vivo, Amaranthus retroflexus
# CONDITION SUMMARY: Preemergence, Rate 125 g/ha; scale of 0 to 10 where 0 is no effect and 10 is complete control
# Redroot pigweed plant response rating per record follows
When you answer, write just the number.

CC(C)N(C(=O)n1oc(=O)n(CC[N+](=O)[O-])c1=O)c1ccc(F)cc1F [Compound 591]    0

Q) Which Redroot pigweed plant response rating is listed for CC[C@H](C)n1c(=O)on(C(=O)N(c2ccc(Cl)cc2)C(C)C)c1=O [Compound 664] ?
A) 7

Q) Which Redroot pigweed plant response rating is listed for CC[C@H](C)n1c(=O)on(C(=O)N(c2ccc(F)cc2F)C(C)C)c1=O [Compound 666] ?
A) 10

Q) Which Redroot pigweed plant response rating is listed for CC(C)N(C(=O)n1oc(=O)n(C(C)C)c1=O)c1ccncc1 [Compound 663] ?
A) 0

Q) Which Redroot pigweed plant response rating is listed for CCOP(=O)(Cn1c(=O)on(C(=O)N(c2ccc(Cl)cc2)C(C)C)c1=O)OCC [Compound 599] ?
A) 0
